TESTED_ON: Carnitine O-palmitoyltransferase 1, liver isoform (Homo sapiens, UniProt P50416)
Sequence (P50416 whole entry, canonical isoform): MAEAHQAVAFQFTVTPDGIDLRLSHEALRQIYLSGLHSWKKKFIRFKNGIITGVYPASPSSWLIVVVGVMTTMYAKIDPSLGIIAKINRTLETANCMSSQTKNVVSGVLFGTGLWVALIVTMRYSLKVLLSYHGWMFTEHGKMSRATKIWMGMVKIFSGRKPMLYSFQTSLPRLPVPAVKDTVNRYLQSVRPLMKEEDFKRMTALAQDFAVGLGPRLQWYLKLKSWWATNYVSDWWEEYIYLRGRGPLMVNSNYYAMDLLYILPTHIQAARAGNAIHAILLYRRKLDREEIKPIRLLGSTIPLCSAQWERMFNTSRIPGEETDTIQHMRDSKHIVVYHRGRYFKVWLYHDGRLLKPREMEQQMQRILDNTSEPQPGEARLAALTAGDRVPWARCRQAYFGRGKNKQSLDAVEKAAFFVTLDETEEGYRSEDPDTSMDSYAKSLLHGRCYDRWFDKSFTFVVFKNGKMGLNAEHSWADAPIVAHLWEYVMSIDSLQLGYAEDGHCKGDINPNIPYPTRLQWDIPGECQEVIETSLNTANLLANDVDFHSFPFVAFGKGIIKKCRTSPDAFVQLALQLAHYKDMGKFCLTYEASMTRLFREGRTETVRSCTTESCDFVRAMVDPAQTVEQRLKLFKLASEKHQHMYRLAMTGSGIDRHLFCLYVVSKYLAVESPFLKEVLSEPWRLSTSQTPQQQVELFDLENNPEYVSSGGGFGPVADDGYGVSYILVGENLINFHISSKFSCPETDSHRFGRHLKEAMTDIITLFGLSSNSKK
MEASUREMENT_PROTOCOL: SUPPLEMENTARY: Inhibition of Carnitine palmitoyltransferase 1, liver isoform
For each record, check the reported IC50: if it is below 80 nM write MET, else write NOT MET.

[
  {
    "COMPOUND": "O=C(COc1ccccc1)N1CCCC[C@@H]1c1noc(-c2cc[nH]n2)n1",
    "CLASS_LABEL": "NOT MET"
  },
  {
    "COMPOUND": "COc1ccc(Cl)cc1S(=O)(=O)c1cn(CC(N)=O)c2ccc(C(=O)Nc3ccccc3)cc12",
    "CLASS_LABEL": "MET"
  },
  {
    "COMPOUND": "COc1ccc(Cl)cc1S(=O)(=O)c1nn(C)c2ccc(C(=O)Nc3ccccc3)cc12",
    "CLASS_LABEL": "NOT MET"
  },
  {
    "COMPOUND": "O=C(COc1ccccc1)N1CCCC[C@@H]1c1noc(-c2ccc(-n3cnnn3)cc2)n1",
    "CLASS_LABEL": "NOT MET"
  },
  {
    "COMPOUND": "CS(=O)(=O)c1ccc(-n2nnc([C@H]3CCCCN3C(=O)COc3ccccc3)n2)cc1",
    "CLASS_LABEL": "NOT MET"
  },
  {
    "COMPOUND": "CC(=O)Nc1cc(-c2nc([C@H]3CCCCN3C(=O)COc3ccccc3)no2)ccn1",
    "CLASS_LABEL": "MET"
  },
  {
    "COMPOUND": "COc1ccc(Cl)cc1S(=O)(=O)N1CCOc2ccc(C(=O)Nc3ccc(-c4noc(=O)[nH]4)cc3)cc21",
    "CLASS_LABEL": "MET"
  },
  {
    "COMPOUND": "Nc1cc(-c2nc([C@H]3CCCCN3C(=O)COc3ccccc3)no2)ccn1",
    "CLASS_LABEL": "NOT MET"
  },
  {
    "COMPOUND": "O=C([C@H]1CCCCN1C(=O)COc1ccccc1)N1CCc2c(Cl)cccc2C1",
    "CLASS_LABEL": "NOT MET"
  },
  {
    "COMPOUND": "O=C(c1nc([C@H]2CCCCN2C(=O)COc2ccccc2)no1)N1CCOCC1",
    "CLASS_LABEL": "NOT MET"
  },
  {
    "COMPOUND": "COc1ccc(Cl)cc1S(=O)(=O)N1CCCCc2ccc(C(=O)Nc3ccc(C(=O)O)cc3)cc21",
    "CLASS_LABEL": "NOT MET"
  },
  {
    "COMPOUND": "O=C(O)Cc1ccc(NC(=O)c2ccc3ccn(S(=O)(=O)c4cccc(Cl)c4)c3c2)cc1",
    "CLASS_LABEL": "MET"
  },
  {
    "COMPOUND": "CC(=O)NCc1cccc(-c2nc([C@H]3CCCCN3C(=O)COc3ccccc3)no2)c1",
    "CLASS_LABEL": "NOT MET"
  },
  {
    "COMPOUND": "O=C(COc1ccccc1)N1CCCC[C@@H]1c1noc(-c2cccc(-n3cc[nH]c3=O)c2)n1",
    "CLASS_LABEL": "MET"
  },
  {
    "COMPOUND": "CCCN(c1cc(C(=O)Nc2ccn(CC(=O)O)n2)cc2c1OCO2)S(=O)(=O)c1cc(Cl)ccc1OC",
    "CLASS_LABEL": "NOT MET"
  },
  {
    "COMPOUND": "O=C(COc1ccccc1)N1CCCC[C@@H]1c1nnn(-c2ccc(F)cc2)n1",
    "CLASS_LABEL": "NOT MET"
  },
  {
    "COMPOUND": "COc1ccc(Cl)cc1S(=O)(=O)N1CCOc2c(Cl)cc(C(=O)Nc3ccc(C(=O)O)cc3)cc21",
    "CLASS_LABEL": "MET"
  },
  {
    "COMPOUND": "COc1ccc(Cl)cc1S(=O)(=O)Nc1cc(C(=O)Nc2ccc(C(=O)O)cc2)cc(OC)c1OC",
    "CLASS_LABEL": "MET"
  },
  {
    "COMPOUND": "COc1ccc(Cl)cc1S(=O)(=O)N1CCOc2c(F)cc(C(=O)Nc3ccc(CC(=O)O)cc3)cc21",
    "CLASS_LABEL": "NOT MET"
  },
  {
    "COMPOUND": "COc1ccc(Cl)cc1Cc1cn(C)c2ccc(C(=O)Nc3ccc(C(=O)O)cc3)cc12",
    "CLASS_LABEL": "MET"
  },
  {
    "COMPOUND": "CC(=O)Nc1cc(-c2noc([C@H]3CCCCN3C(=O)COc3ccccc3)n2)ccc1F",
    "CLASS_LABEL": "MET"
  },
  {
    "COMPOUND": "O=C(COc1ccccc1)N1CCCC[C@@H]1c1nc(-c2ccc(=O)[nH]c2)no1",
    "CLASS_LABEL": "NOT MET"
  },
  {
    "COMPOUND": "CC1(C)NC(=O)N(c2ccc(Cl)c(-c3nc([C@H]4CCCCN4C(=O)COc4ccccc4)no3)c2)C1=O",
    "CLASS_LABEL": "NOT MET"
  },
  {
    "COMPOUND": "COc1ccc(Cl)cc1Cc1c[nH]c2ccc(C(=O)Nc3nc(CC(=O)O)cs3)cc12",
    "CLASS_LABEL": "MET"
  },
  {
    "COMPOUND": "COc1ccc(Cl)cc1S(=O)(=O)c1nn(C)c2ccc(C(=O)Nc3ccc(C(=O)O)cc3)cc12",
    "CLASS_LABEL": "MET"
  },
  {
    "COMPOUND": "O=C(COc1ccccc1)N1CCCC[C@@H]1c1nc(-c2cccc(B(O)O)c2)no1",
    "CLASS_LABEL": "MET"
  },
  {
    "COMPOUND": "CC(C)C(=O)Nc1cccc(-c2n[nH]c([C@H]3CCCCN3C(=O)COc3ccccc3)n2)c1",
    "CLASS_LABEL": "MET"
  },
  {
    "COMPOUND": "COc1ccc(Cl)cc1S(=O)(=O)N1CC(C)c2ccc(C(=O)Nc3ccc(C(=O)O)cc3)cc21 (configuration not stated)",
    "CLASS_LABEL": "MET"
  },
  {
    "COMPOUND": "O=C(COc1ccccc1)N1CCCC[C@@H]1c1nc(-c2cc[nH]c(=O)c2)no1",
    "CLASS_LABEL": "NOT MET"
  },
  {
    "COMPOUND": "O=C(COc1ccccc1)N1CCCC[C@@H]1c1nc(-c2ccc(S(=O)(=O)NCCO)cc2)no1",
    "CLASS_LABEL": "MET"
  },
  {
    "COMPOUND": "COc1ccc(Cl)cc1S(=O)(=O)N(CCC(=O)O)c1cc(C(=O)Nc2ccccc2)cc2c1OCO2",
    "CLASS_LABEL": "NOT MET"
  },
  {
    "COMPOUND": "N#Cc1cccc(-c2n[nH]c([C@H]3CCCCN3C(=O)COc3ccccc3)n2)c1",
    "CLASS_LABEL": "NOT MET"
  },
  {
    "COMPOUND": "COc1ccc(Cl)cc1Cc1c[nH]c2ccc(C(=O)Nc3ccc(CC(=O)O)cc3)cc12",
    "CLASS_LABEL": "NOT MET"
  },
  {
    "COMPOUND": "O=C1CNc2ccc(-c3nc([C@H]4CCCCN4C(=O)COc4ccccc4)no3)cc2N1",
    "CLASS_LABEL": "NOT MET"
  },
  {
    "COMPOUND": "O=C(O)c1ccc(NC(=O)c2ccc3c(c2)N(S(=O)(=O)c2cccc(Cl)c2)CCS3(=O)=O)cc1",
    "CLASS_LABEL": "MET"
  },
  {
    "COMPOUND": "O=C(COc1ccccc1)N1CCCC[C@@H]1c1nc(-c2cccc(F)c2)n[nH]1",
    "CLASS_LABEL": "NOT MET"
  }
]
